Data provenance is patent US4389403A.

test: Narcosis-prolonging action in rats (chloral hydrate narcosis), sedative action; details: rat, in vivo, po
So I've got a bunch of compounds here, and I need their ED50 values.
Just the number please, in mg/kg, no unit attached.

Dear colleague, I am looking for the recorded ED50 of the following compound: O=C(c1ccccc1)N1CCN=C1Nc1c(Cl)cccc1Cl 0.948

# query: ED50 of entry O=C(c1cccnc1)N1CCN=C1Nc1c(Cl)cccc1Cl 0.1

Entry O=C(c1ccc2ccccc2n1)N1CCN=C1Nc1c(Cl)cccc1Cl : reported ED50 = ? 0.464

Entry Clc1cccc(Cl)c1NC1=NCCN1 : reported ED50 = ? 0.0565

----------
Can you tell me LD50 at 168 h for the items I'm about to list?
experiment: Acute toxicity (LD 50); settings: rat, in vivo, po
State the answer as a number, implicitly in mg/kg.

# get_value(readout='LD50 at 168 h', item= Clc1cccc(Cl)c1NC1=NCCN1 ) 67.3

Can you share its LD50 at 168 h? I mean this compound: O=C(c1ccc2ccccc2n1)N1CCN=C1Nc1c(Cl)cccc1Cl 44

What value of LD50 at 168 h has been reported for the following compound? O=C(c1ccccc1)N1CCN=C1Nc1c(Cl)cccc1Cl 68.1

Need LD50 at 168 h, item O=C(c1cccnc1)N1CCN=C1Nc1c(Cl)cccc1Cl 80

----------
system: chloral hydrate narcosis in Sprague-Dawley rats; test: Narcosis-prolonging action in rats (chloral hydrate narcosis), sedative action; conditions: rats, oral administration; relative to clonidine = 1.00
testReadout: Narcosis-prolonging effect R.E. (relative effectiveness)
Answer with a bare number; do not write a unit.

Give its Narcosis-prolonging effect R.E. (relative effectiveness) value. Item: O=C(c1ccccc1)N1CCN=C1Nc1c(Cl)cccc1Cl 0.06

Quick one: Narcosis-prolonging effect R.E. (relative effectiveness) of Clc1cccc(Cl)c1NC1=NCCN1 ? 1.00

Requested read-out: Narcosis-prolonging effect R.E. (relative effectiveness). Entry: O=C(c1ccc2ccccc2n1)N1CCN=C1Nc1c(Cl)cccc1Cl 0.12

Could you tell me which Narcosis-prolonging effect R.E. (relative effectiveness) is on file for O=C(c1cccnc1)N1CCN=C1Nc1c(Cl)cccc1Cl ? 0.57

----------
experiment: Narcosis-prolonging action in rats (chloral hydrate narcosis), sedative action; details: rat, in vivo, po
Please respond with reported selectivity ratio for every item in the list.
Provide a numeric answer; units are not to be included.

Which selectivity ratio value belongs to O=C(c1ccccc1)N1CCN=C1Nc1c(Cl)cccc1Cl ? 1.13

Can you look up the measured selectivity ratio of Clc1cccc(Cl)c1NC1=NCCN1 for me? 0.68

Requested field: selectivity ratio. Item: O=C(c1cccnc1)N1CCN=C1Nc1c(Cl)cccc1Cl 1.27

I would be grateful if you could share the reported selectivity ratio for O=C(c1ccc2ccccc2n1)N1CCN=C1Nc1c(Cl)cccc1Cl . 5.42
